Ok so here's the combined literature set: IC50 for Protein kinase C alpha type (Homo sapiens).
Answer in nM, number only, no unit symbol.

[Q] Reported IC50 for Protein kinase C alpha type (Homo sapiens), given `COc1ccc2c(c1)C(=O)N(c1cnn3ccc(-c4ccnc5[nH]ccc45)cc13)C2` ?
[A] 2500

[Q] // lookup IC50 | system=Protein kinase C alpha type (Homo sapiens) | key= `O=C(N[C@H]1CCCCC[C@H]1OC(=O)c1cc(O)c(C(=O)c2c(O)cccc2C(=O)O)c(O)c1)c1ccc(O)cc1`
[A] 270

[Q] Param readout= IC50; system= Protein kinase C alpha type (Homo sapiens); entry= O=C(NN1C(=O)c2c(c3c4cccc(O)c4n(C4OC(CO)C(O)C(O)C4O)c3c3[nH]c4c(O)cccc4c23)C1=O)c1ccccc1 (centres undefined) ; returns value.
[A] 35000

[Q] Quick check: IC50 on Protein kinase C alpha type (Homo sapiens), item `CN1CCN(c2nc(C3=C(c4c[nH]c5c(Cl)cccc45)C(=O)NC3=O)c3ccccc3n2)CC1` ?
[A] 9.1

[Q] # value lookup — system Protein kinase C alpha type (Homo sapiens), readout IC50, item `COc1cc2c(cc1-c1cnn3ccc(-c4ccnc5[nH]ccc45)nc13)CNC2`
[A] 350

###

Hi, quick share: literature IC50 data for Protein kinase C alpha type (Homo sapiens, UniProt P17252), several sources combined.
Respond with the bare value in nM.

Here are 5 molecules together with their reported answers.
[
  {
    "molecule": "O=C(N[C@@H]1CCC[C@H]1OC(=O)c1cc(O)c(C(=O)c2c(O)cccc2NS(=O)(=O)C(F)(F)F)c(O)c1)c1ccc(O)cc1",
    "endpoint-label": "IC50",
    "unit-label": "nM",
    "reported-result": 100
  },
  {
    "molecule": "COc1ccccc1C1=C(c2cn(CCCNS(C)(=O)=O)c3ncccc23)C(=O)NC1=O",
    "endpoint-label": "IC50",
    "unit-label": "nM",
    "reported-result": 4700
  },
  {
    "molecule": "O=C(N[C@@H]1c2ccccc2CC1OC(=O)c1cc(O)c(C(=O)c2c(O)cccc2C(=O)O)c(O)c1)c1ccc(O)cc1 (mixture of isomers)",
    "endpoint-label": "IC50",
    "unit-label": "nM",
    "reported-result": 160
  },
  {
    "molecule": "CN(C)CCOc1cccc(C2=C(c3c[nH]c4ccccc34)C(=O)NC2=O)c1",
    "endpoint-label": "IC50",
    "unit-label": "nM",
    "reported-result": 15
  },
  {
    "molecule": "COC(=O)c1cc(NC(=O)c2cc(NC(=O)Cn3cc(C4=C(c5c[nH]c6ccccc56)C(=O)NC4=O)c4ccccc43)cn2C)cn1C",
    "endpoint-label": "IC50",
    "unit-label": "nM",
    "reported-result": 280
  }
]

// next item, IC50 requested
[Q] Which measured IC50 value corresponds to `NC[C@H]1C[C@H](NC(=O)c2ccc(O)cc2)[C@H](OC(=O)c2cc(O)c(C(=O)c3c(O)cccc3C(=O)O)c(O)c2)C1` ?
[A] 20

###

From various publications: IC50 for Protein kinase C alpha type (Homo sapiens, UniProt P17252).
Numeric answer only, unit µM assumed.

These solved cases illustrate the format of a correct answer.
[
  {
    "chemical-string": "Cn1c(CNc2cccc(C(=O)NCc3ccccc3C(F)(F)F)c2)nnc1-c1ccncc1",
    "unit-label": "µM",
    "IC50": 8.1
  },
  {
    "chemical-string": "COc1ccc(C2=C(c3cn(C)c4ccccc34)C(=O)NC2=O)cc1OC",
    "unit-label": "µM",
    "IC50": 6.6
  },
  {
    "chemical-string": "O=C1NC(=O)C(c2c[nH]c3ccccc23)=C1c1nc(N2CCNCC2)nc2ccccc12",
    "unit-label": "µM",
    "IC50": 0.0005
  },
  {
    "chemical-string": "O=C(N[C@@H]1CNCCC[C@H]1OC(=O)c1cc(O)c(C(=O)c2c(O)cccc2C(=O)O)c(O)c1)c1ccc(O)cc1",
    "unit-label": "µM",
    "IC50": 0.03
  },
  {
    "chemical-string": "O=c1sn(CCc2ccccc2)c(=O)n1Cc1ccc(F)cc1",
    "unit-label": "µM",
    "IC50": 38.7
  },
  {
    "chemical-string": "C[C@@H]1C(=O)NN=C2COc3cc(-c4ccccc4)c(NC4CNC4)cc3N21",
    "unit-label": "µM",
    "IC50": 1.8
  }
]

[Q] GET /values?readout=IC50&item= `CCN(CC)CCCn1cc(NC(=O)Nc2cncc(-c3ccccc3)n2)c2ccccc21`
[A] 8.07

###

Compiled record: pIC50 values for Protein kinase C alpha type (Homo sapiens, UniProt P17252) across several sources.
The read-out pIC50 is expressed as -log10 of concentration in moles per litre.

[
  {
    "compound": "CN(C)Cc1ccc2c(C3=C(c4c[nH]c5ccccc45)C(=O)NC3=O)c(Cl)ccc2c1",
    "reported-result": 8.74
  },
  {
    "compound": "COc1cc2c(cc1-c1cnn3ccc(-c4ccnc5[nH]ccc45)cc13)CNC(CF)C2 (stereo not given)",
    "reported-result": 7.35
  },
  {
    "compound": "CN1CCN(c2cc3ccccc3c(C3=C(c4c[nH]c5ccccc45)C(=O)NC3=O)n2)CC1",
    "reported-result": 8.85
  },
  {
    "compound": "COc1cc2c(cc1-c1cnn3ccc(-c4ccnc5[nH]ccc45)cc13)CNCC2",
    "reported-result": 7.15
  }
]

[Q] Item: `C[C@H]1C(=O)NN=C2COc3cc(-c4ccccc4)c(NC4CNC4)cc3N21` Test system: Protein kinase C alpha type (Homo sapiens, UniProt P17252) Read-out: pIC50 Value: ?
[A] 5.18

[Q] Checklist item: pIC50 tested on Protein kinase C alpha type (Homo sapiens, UniProt P17252), entry CC1C(=O)NN=C2COc3cc(F)c(NC4CNC4)cc3N21 (stereo not given) , value?
[A] 5.16

[Q] Identify the measured pIC50 of `O=C(N[C@H]1C[C@H](O)C[C@H]1OC(=O)c1cc(O)c(C(=O)c2c(O)cccc2C(=O)O)c(O)c1)c1ccc(O)cc1` for Protein kinase C alpha type (Homo sapiens, UniProt P17252).
[A] 7.30

###

Assembled from different publications: IC50 for Protein kinase C alpha type (Homo sapiens, UniProt P17252).
The response must be a number in µM with no trailing unit.

// below: answered compounds
[
  {
    "chemical-string": "COC(=O)c1cc(NC(=O)Cn2cc(C3=C(c4c[nH]c5ccccc45)C(=O)NC3=O)c3ccccc32)cn1C",
    "unit-label": "µM",
    "IC50": 0.5
  },
  {
    "chemical-string": "O=C(NCc1ccccc1)Nc1cccc(NCc2nc(-c3ccncc3)n[nH]2)c1",
    "unit-label": "µM",
    "IC50": 2.7
  },
  {
    "chemical-string": "O=C(N[C@@H]1c2ccccc2C[C@@H]1OC(=O)c1cc(O)c(C(=O)c2c(O)cccc2C(=O)O)c(O)c1)c1ccc(O)cc1",
    "unit-label": "µM",
    "IC50": 0.29
  },
  {
    "chemical-string": "CC(=O)N[C@H]1C[C@H]2O[C@@](C)([C@@H]1O)n1c3ccccc3c3c4c(c5c6ccccc6n2c5c31)C(=O)NC4",
    "unit-label": "µM",
    "IC50": 0.092
  },
  {
    "chemical-string": "CCn1cnc2c(Nc3cccc(C(F)(F)F)c3)nc(NCCN)nc21.Cl",
    "unit-label": "µM",
    "IC50": 50
  }
]

Please turn your attention to the following entry.
[Q] Could you share what IC50 was measured for `Nc1nc(C2=C3C(=Nc4ccccc43)C(=O)NCC2)c(O)[nH]1` , tested on Protein kinase C alpha type (Homo sapiens, UniProt P17252)?
[A] 2.54

###

Reported IC50 on Protein kinase C alpha type (Homo sapiens, UniProt P17252) for assorted compounds, compiled from publications.
Sorting guide: entries reporting IC50 beneath 0.2 µM go in the condition met pile, the rest go in the condition not met pile.

Example results:
[
  {
    "compound": "COC(=O)c1cc(NC(=O)c2cc(C(=O)c3cc(NC(=O)Cn4cc(C5=C(c6c[nH]c7ccccc67)C(=O)NC5=O)c5ccccc54)cn3C)cn2C)cn1C",
    "subject-of-test": "Protein kinase C alpha type (Homo sapiens, UniProt P17252)",
    "category-label": "condition met"
  },
  {
    "compound": "CCn1cnc2c(Nc3cccc(Cl)c3)nc(N[C@H]3CCC[C@@H](N)C3)nc21",
    "subject-of-test": "Protein kinase C alpha type (Homo sapiens, UniProt P17252)",
    "category-label": "condition not met"
  },
  {
    "compound": "Cc1ccc(NC(=O)c2ccc3ccccc3c2)cc1Nc1nccc(-c2cccnc2)n1",
    "subject-of-test": "Protein kinase C alpha type (Homo sapiens, UniProt P17252)",
    "category-label": "condition not met"
  },
  {
    "compound": "COc1cc2c(cc1-n1cnc3cnc(-c4ccnc5[nH]ccc45)cc31)CNC2",
    "subject-of-test": "Protein kinase C alpha type (Homo sapiens, UniProt P17252)",
    "category-label": "condition not met"
  }
]

[Q] Find out if reported IC50 for `c1cncc(-c2ccnc(Nc3cccc(-n4ccnc4)c3)n2)c1` is less than 0.2 µM
[A] condition not met

[Q] Item `COc1cccc(Cn2cnc3ccc(-c4cn[nH]c4)cc3c2=O)c1` : IC50 beneath 0.2 µM, strictly?
[A] condition not met

[Q] Given the entry `O=C(CNc1cccc(Oc2ccccc2)c1)N/N=C1\CCCc2cnccc21` , would its reported IC50 be below 0.2 µM?
[A] condition not met

[Q] Just wondering, is IC50 of `Cc1cc2c(cc1NC1CNC1)N1C(=NNC(=O)[C@H]1C)CO2` below 0.2 µM?
[A] condition not met

[Q] Take the compound `CC(C)n1c(CNc2cccc(C(=O)NCc3ccccc3)c2)nnc1-c1ccncc1` and say whether its IC50 is less than 0.2 µM.
[A] condition not met

[Q] Lab note: confirm whether the reported IC50 for this compound is below 0.2 µM, equality not counting. compound: `CN(C)CCCn1nc(C2=C(c3cn(-c4cccnc4)c4ccccc34)C(=O)NC2=O)c2ccccc21`
[A] condition met

[Q] A record lists `Cn1c(CNc2cccc(C(=O)NCc3ccccc3Cl)c2)nnc1-c1ccncc1` . Is its IC50 below 0.2 µM?
[A] condition not met

[Q] Is the reported IC50 for CC(C)c1cc2c(cc1NC1CNC1)N1C(=NNC(=O)C1C)CO2 (centres undefined) strictly below 0.2 µM?
[A] condition not met

[Q] Quick check: IC50 of `CN(C(=O)c1cc(O)c(C(=O)c2c(O)cccc2C(=O)O)c(O)c1)[C@H]1CCCNC[C@H]1NC(=O)c1ccc(O)cc1` under 0.2 µM?
[A] condition not met

[Q] Just wondering, is IC50 of `CN(C)CCOc1ccc2c(c1)CCn1nc(-c3ccc(Oc4ccccc4)cc3)c(C(N)=O)c1N2` below 0.2 µM?
[A] condition not met

[Q] Hello, I'm reviewing records and need to know if IC50 of `COc1cccc(Cn2ncc3ccc(-c4cn[nH]c4)cc3c2=O)c1` is below 0.2 µM. Could you check?
[A] condition not met

[Q] Answer whether the compound CC1C(=O)NN=C2COc3ccc(NC4CNC4)cc3N21 (centres undefined) has IC50 strictly less than 0.2 µM
[A] condition not met

[Q] # check: IC50 < 0.2 µM for Cn1cc(C2=C(c3cccc(NCC(O)CO)c3)C(=O)NC2=O)c2cc(F)ccc21 (racemic)
[A] condition not met

[Q] # check: IC50 < 0.2 µM for `CCc1cc2c(cc1N1CCN(C3COC3)CC1)C(C)(C)c1[nH]c3cc(C#N)ccc3c1C2=O`
[A] condition not met

[Q] Consider the compound `O=C(CNc1cccc(C(=O)NCc2ccccc2)c1)N/N=C1\CCCc2cnccc21` . Is its IC50 strictly less than 0.2 µM?
[A] condition not met

[Q] Please determine if `Oc1cc2c(c(O)c1O)-c1c(cc(O)c(O)c1O)COC2` is below 0.2 µM in terms of IC50.
[A] condition not met

[Q] Problem: For the compound `COc1cc2c(cc1-c1cnn3ccc(-c4ccnc5[nH]ccc45)cc13)CNC2` , is IC50 under 0.2 µM?
[A] condition met

[Q] API: query returns whether the compound falls strictly under 0.2 µM in IC50. Query: `CONC(=O)c1ccc(C)c(Nc2nc(N(C)CC(C)(C)C)nc(N3CCCN(C)CC3)n2)c1`
[A] condition not met
